mass density reference
Test parameters: 323.15 K; 10000 kPa; Liquid
Give the quantity in kg/m3, number only.

Solved entries (count: 3):
>>> df
                                   molecule  unit_text  readout_value
0  CCn1cc[n+](C)c1.O=S(=O)([N-]S(=O)(=O)C(F)(F)F)C(F)(F)F      kg/m3           1500
1  CCCCCCCCn1cc[n+](C)c1.O=S(=O)([N-]S(=O)(=O)C(F)(F)F)C(F)(F)F      kg/m3           1303
2  CCn1cc[n+](C)c1.F[B-](F)(F)F [1-ethyl-3-methylimidazolium tetrafluoroborate]      kg/m3           1284

# evaluate next
Kindly note the recorded mass density for CCCCCCCn1cc[n+](C)c1.O=S(=O)([N-]S(=O)(=O)C(F)(F)F)C(F)(F)F , which is 1330

====

Test parameters: 303.15 K; 25000 kPa; Liquid
Quantity measured: mass density (kg/m3)
Give the quantity in kg/m3, number only.

Solved entries (count: 3):
>>> df
                                   compound  unit_text  readout_value
0  CCn1cc[n+](C)c1.O=S(=O)([N-]S(=O)(=O)C(F)(F)F)C(F)(F)F      kg/m3           1532
1  CCCCCCCCn1cc[n+](C)c1.O=S(=O)([N-]S(=O)(=O)C(F)(F)F)C(F)(F)F      kg/m3           1333
2  CCCCCCCn1cc[n+](C)c1.O=S(=O)([N-]S(=O)(=O)C(F)(F)F)C(F)(F)F      kg/m3           1360

# evaluate next
Kindly note the recorded mass density for CCn1cc[n+](C)c1.F[B-](F)(F)F [1-ethyl-3-methylimidazolium tetrafluoroborate] , which is 1307

====

Test parameters: 343.15 K; 3000 kPa; Liquid
mass density reference
Give the quantity in kg/m3, number only.

Solved entries (count: 3):
                                   compound  readout_value
0  CCn1cc[n+](C)c1.O=S(=O)([N-]S(=O)(=O)C(F)(F)F)C(F)(F)F           1474
1  CCCCCCCn1cc[n+](C)c1.O=S(=O)([N-]S(=O)(=O)C(F)(F)F)C(F)(F)F           1306
2  CCCCCCCCn1cc[n+](C)c1.O=S(=O)([N-]S(=O)(=O)C(F)(F)F)C(F)(F)F           1280

# evaluate next
Kindly note the recorded mass density for CCn1cc[n+](C)c1.F[B-](F)(F)F [1-ethyl-3-methylimidazolium tetrafluoroborate] , which is 1266

====

Test parameters: 313.15 K; 3000 kPa; Liquid
mass density reference
Give the quantity in kg/m3, number only.

Kindly note the recorded mass density for CCCCCCCn1cc[n+](C)c1.O=S(=O)([N-]S(=O)(=O)C(F)(F)F)C(F)(F)F , which is 1334

Kindly note the recorded mass density for CCCCCCCCn1cc[n+](C)c1.O=S(=O)([N-]S(=O)(=O)C(F)(F)F)C(F)(F)F , which is 1307

Kindly note the recorded mass density for CCn1cc[n+](C)c1.O=S(=O)([N-]S(=O)(=O)C(F)(F)F)C(F)(F)F , which is 1506

Kindly note the recorded mass density for CCn1cc[n+](C)c1.F[B-](F)(F)F [1-ethyl-3-methylimidazolium tetrafluoroborate] , which is 1289
